Property: EC50; scope: individual binders
experimental-target: T1, full-length human Tim3 on cells (CHO-K1 stably transfected with plasmid 15312_hTIM3-fl_pUC_Neo) (human, UniProt Q8TDQ0 22-301)
T1 construct: Also used as the target of the MLR read-outs (native TIM-3); also called CHO-Tim3; CHO-TIM3
test-summary: cellular ELISA on CHO-TIM3 (values in relation to the samples max value)

>  <binder>
Tim3_0018MutNQ (antibody, V domains shown) VH: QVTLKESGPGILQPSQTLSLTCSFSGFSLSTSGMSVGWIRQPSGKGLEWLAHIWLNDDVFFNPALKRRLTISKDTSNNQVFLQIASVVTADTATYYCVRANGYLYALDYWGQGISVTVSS VL: QIVLTQSPAIMSASPGQKVTITCSASSSVQYTQWYQQKLGSSPKLWIYDAFKLAPGVPARFSGSGTGTSYSLTISSMEAEDAASYFCHQWSSYPWTFGGGTKLEIK

>  <unit-spec>
µg/mL

>  <EC50>
0.0134

$$$$
>  <binder>
Tim3_0016MutNQ (antibody, V domains shown) VH: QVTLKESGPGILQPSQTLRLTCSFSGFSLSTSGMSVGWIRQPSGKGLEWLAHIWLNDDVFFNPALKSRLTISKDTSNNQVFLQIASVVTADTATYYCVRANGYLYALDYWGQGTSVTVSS VL: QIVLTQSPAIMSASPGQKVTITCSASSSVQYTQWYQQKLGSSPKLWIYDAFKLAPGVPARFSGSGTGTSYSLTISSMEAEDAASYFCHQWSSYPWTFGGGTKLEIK

>  <unit-spec>
µg/mL

>  <EC50>
0.0063

$$$$
>  <binder>
Tim3_0016MutNS (antibody, V domains shown) VH: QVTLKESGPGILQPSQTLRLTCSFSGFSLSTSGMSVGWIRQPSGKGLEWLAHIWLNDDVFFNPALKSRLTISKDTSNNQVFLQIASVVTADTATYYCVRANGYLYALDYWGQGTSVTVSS VL: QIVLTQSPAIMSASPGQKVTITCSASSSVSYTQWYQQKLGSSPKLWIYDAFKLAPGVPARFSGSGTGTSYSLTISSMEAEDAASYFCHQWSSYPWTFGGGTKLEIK

>  <unit-spec>
µg/mL

>  <EC50>
0.0091

$$$$
>  <binder>
Tim3_0018MutNS (antibody, V domains shown) VH: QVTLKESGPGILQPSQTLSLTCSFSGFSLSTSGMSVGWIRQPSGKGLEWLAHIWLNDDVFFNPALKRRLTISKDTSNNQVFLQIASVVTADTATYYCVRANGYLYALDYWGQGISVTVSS VL: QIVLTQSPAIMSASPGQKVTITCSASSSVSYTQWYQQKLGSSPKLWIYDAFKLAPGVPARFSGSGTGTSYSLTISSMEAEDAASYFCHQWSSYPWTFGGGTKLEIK

>  <unit-spec>
µg/mL

>  <EC50>
0.0112

$$$$
